assayed target: VIP receptor on human cells (human)
assay name: competition with 125I-VIP on KU812 cells
No end group written: not given here.
readout name: IC50 (nM)
The reply should be a number in nM, with the unit left off.

A selection of reference data follows.
binder	IC50, nM
HSDAVFTDNYTRLRKQMAVKKYLNSILNC (C-terminal C(BAT): S-(N6,N9-bis(2-mercapto-2-methylpropyl)-6,9-diazanonan-1-yl)cysteine; C-terminal amide; non-radioactive ReO complexed to the chelating moiety) [ReO-complexed P917]	1
HSDAVFTDNYTRLRKQMAVKKYLNSILNKGC ((ε-K): lysine 29 linked through its ε-amino group; C-terminal amide; non-radioactive ReO complexed to the chelating moiety) [ReO-complexed P887]	5.2

Proceed to the following item.
Q: Output measured IC50 for this item: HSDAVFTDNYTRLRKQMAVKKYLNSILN-NH2 [Vasoactive intestinal peptide (VIP)]
Result: 0.8

// data source = patent US5849261
